Please respond with reported TGI for every item in the list.
# System: BT-549 breast
# Procedure Summary: NCI tumour cell line growth inhibition, 48 h
Numbers only, in µM.

State recorded TGI for all listed compounds.
1. NCCCNc1nc2ccccc2c2c(=O)c3cc(F)cc(F)c3sc12
2. CCCCCCCC/C=C/CCCCCCCC1=NC(C)(C)CN1CC(C)O (stereo unspecified)
3. COc1cc2nc(Nc3cccc(Br)c3)nc(Nc3cccc(Br)c3)c2cc1OC
4. CC1(C)N=C(N)N=C(N)N1c1ccc(CCCCc2ccccc2)c(Cl)c1

[A]
26.8
15.7
30.7
5.19

State recorded TGI for all listed compounds.
1. C[C@]12CC[C@@H]3c4cc(OC(F)F)c(O)cc4CC[C@H]3[C@@H]1CC[C@@H]2OS(N)(=O)=O
2. CCN(CC)CCNc1ccc(C)c2sc3cc(Cl)ccc3c(=O)c12

[A]
1. 45.3
2. 6.95
